target: IDO1 (Homo sapiens, UniProt P14902); construct: HeLa cells were treated with a test compound in the presence of IFNγ, which induces IDO1 expression; host or cells: H1-HeLa cells, IDO1 induced with IFNγ; assay: Cell-based (HeLa) assay for measurement of IDO1 inhibition (kynurenine levels in supernatant after IFNγ induction); conditions: HeLa cells, IFNγ-induced IDO1, kynurenine in supernatant after 48 hour incubation; geometric mean of a minimum of four determinations
Sequence (P14902 whole entry): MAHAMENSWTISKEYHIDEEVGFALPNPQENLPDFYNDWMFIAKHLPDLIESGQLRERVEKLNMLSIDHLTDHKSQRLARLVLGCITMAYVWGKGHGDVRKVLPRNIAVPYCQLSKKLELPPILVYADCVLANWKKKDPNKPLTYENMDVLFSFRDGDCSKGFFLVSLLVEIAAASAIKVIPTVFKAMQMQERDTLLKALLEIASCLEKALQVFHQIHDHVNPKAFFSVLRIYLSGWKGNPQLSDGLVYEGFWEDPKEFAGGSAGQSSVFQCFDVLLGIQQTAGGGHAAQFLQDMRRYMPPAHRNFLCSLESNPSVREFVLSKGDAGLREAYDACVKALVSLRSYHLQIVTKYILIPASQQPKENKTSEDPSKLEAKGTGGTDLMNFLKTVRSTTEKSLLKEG
pEC50: −log10 of the molar value.
QUANTITY: pEC50

Example results:
[
  {
    "COMPOUND": "CNCCc1nc2c(/C(=N/O)Nc3ccc(F)c(Cl)c3)cc(F)c(F)c2[nH]1 [Example 57]",
    "pEC50": 5.96
  },
  {
    "COMPOUND": "O/N=C(\\Nc1cccc2occc12)c1ccnc2nc[nH]c12 [Example 67]",
    "pEC50": 6.23
  },
  {
    "COMPOUND": "CCNCc1nc2c(/C(=N/O)Nc3ccc(F)c(Cl)c3)cc(F)c(F)c2[nH]1 [Example 50]",
    "pEC50": 6.34
  }
]

A. O/N=C(\Nc1cccc(Br)c1)c1ccnc2nc(CCN3CCCCC3)[nH]c12 [Example 272]
B. ON=C(Nc1ccc(F)c(Cl)c1)c1ccnc2nc(NCCN3CCC(F)(F)CC3)[nH]c12 [Example 214]
Pick one: A or B . Which has the bigger pEC50 number? I would appreciate it if you answered with the label of your choice.
A
(A: 6.32, B: 5.72)

---

target: IDO1 (Homo sapiens, UniProt P14902); construct: HeLa cells were treated with a test compound in the presence of IFNγ, which induces IDO1 expression; host or cells: H1-HeLa cells, IDO1 induced with IFNγ; experiment: Cell-based (HeLa) assay for measurement of IDO1 inhibition (kynurenine levels in supernatant after IFNγ induction); details: HeLa cells, IFNγ-induced IDO1, kynurenine in supernatant after 48 hour incubation; geometric mean of a minimum of four determinations
pEC50: −log10 of the molar value.
QUANTITY: pEC50

The following molecules have reported results that may help.
[
  {
    "MOLECULE": "O/N=C(\\Nc1ccc(F)c(Cl)c1)c1ccnc2nc[nH]c12 [Example 59]",
    "pEC50": 6.68
  },
  {
    "MOLECULE": "OCc1nc2c(/C(=N/O)Nc3ccc(F)c(Cl)c3)cc(F)c(F)c2[nH]1 [Example 46]",
    "pEC50": 6.08
  },
  {
    "MOLECULE": "Cc1c[nH]c(-c2nc3nccc(/C(=N/O)Nc4ccc(F)c(Cl)c4)c3[nH]2)n1 [Example 151]",
    "pEC50": 6.33
  }
]

1. O/N=C(\Nc1ccc(F)c(Cl)c1)c1ccc(F)c2nc[nH]c12 [Example 5]
2. CN(C)CCNc1nc2nccc(C(=NO)Nc3ccc(F)c(Cl)c3)c2[nH]1 [Example 215]
Hi there, can you help? I need to know whether 1 or 2 has lower measured pEC50. Field: selected label. Fill in the label of the entry you choose.
2

---

molecular target: IDO1 (Homo sapiens, UniProt P14902); construct: HeLa cells were treated with a test compound in the presence of IFNγ, which induces IDO1 expression; host or cells: H1-HeLa cells, IDO1 induced with IFNγ; assay: Cell-based (HeLa) assay for measurement of IDO1 inhibition (kynurenine levels in supernatant after IFNγ induction); conditions: HeLa cells, IFNγ-induced IDO1, kynurenine in supernatant, 48 hour incubation; geometric mean of a minimum of four determinations
QUANTITY: EC50 (nM)

[
  {
    "MOLECULE": "CO[C@@H]1CN(C)C[C@H]1Nc1nc2nccc(/C(=N/O)Nc3ccc(F)c(Cl)c3)c2[nH]1",
    "QUANTITY": "EC50",
    "READOUT UNIT": "nM",
    "READOUT VALUE": 1070
  }
]

1. CN(C)CCSc1nc2c(F)c(F)cc(/C(=N/O)Nc3ccc(F)c(Cl)c3)c2[nH]1
2. COC(=O)NCCNc1nc2c(F)c(F)cc(/C(=N/O)Nc3ccc(F)c(Cl)c3)c2[nH]1
Determine, for 1 and 2 , which has the greater value of EC50. Answer by stating the label of the chosen item.
2
(2: 4410 nM, 1: 3010 nM)

I. CN(C)C(=O)CNc1nc2c(F)c(F)cc(/C(=N/O)Nc3ccc(F)c(Cl)c3)c2[nH]1
II. O/N=C(\Nc1cccc(Br)c1)c1cc(F)c(F)c2nc(NCCN3CCCC3)[nH]c12
III. CN(CCNc1nc2c(F)c(F)cc(/C(=N/O)Nc3ccc(F)c(Cl)c3)c2[nH]1)Cc1ccccc1
IV. CN(C)C(CNc1nc2c(F)c(F)cc(/C(=N/O)Nc3ccc(F)c(Cl)c3)c2[nH]1)c1ccccc1 (centres unmarked)
V. ON=C(Nc1ccc(F)c(Cl)c1)c1cc(F)c(F)c2nc(Cl)[nH]c12
Parameters: sort_field (EC50), sort_dir (desc). Would you mind listing the labels in the order asked for?
V, I, IV, III, II

P. NCCNc1nc2c(F)c(F)cc(/C(=N/O)Nc3ccc(F)c(Cl)c3)c2[nH]1
Q. CN1CCC(Nc2nc3c(F)c(F)cc(/C(=N/O)Nc4ccc(F)c(Cl)c4)c3[nH]2)CC1
Pick one: P or Q . Which has the bigger EC50 number? Indicate your choice by writing its label.
Q
(Q: 2880 nM, P: 1390 nM)

P. CNCCNc1nc2c(F)c(F)cc(/C(=N/O)Nc3ccc(F)c(Cl)c3)c2[nH]1
Q. O/N=C(\Nc1ccc(F)c(Cl)c1)c1cc(F)c(F)c2nc(NC3CCNC3)[nH]c12 (centres unmarked)
Problem: Given the entries P and Q , determine which has the lower reported EC50. Field: selected label. Fill in the label of the entry you choose.
P

1. CN(C)CCNc1nc2c(F)ccc(/C(=N/O)Nc3ccc(F)c(Br)c3)c2[nH]1
2. CN(C)CCNc1nc2c(F)ccc(/C(=N/O)Nc3cccc(Br)c3)c2[nH]1
3. CCN(CC)[C@H]1COC[C@@H]1Nc1nc2nccc(C(=NO)Nc3ccc(F)c(Cl)c3)c2[nH]1
4. O/N=C(\Nc1ccc(F)c(Cl)c1)c1cc(F)c(F)c2nc(NCc3ncccn3)[nH]c12
I would appreciate it if you could sort these 4 molecules by EC50, starting from the smallest number. Return value: ordered labels per request.
2, 1, 3, 4

P. O/N=C(\Nc1ccc(F)c(Cl)c1)c1ccnc2nc(NCCN3CCC[C@H]3C(F)(F)F)[nH]c12
Q. O/N=C(\Nc1ccc(F)c(Cl)c1)c1cc(F)cc2nc(NCCN3CCCC3)[nH]c12
Which is greater in EC50, the first item P or the second item Q ? State your choice using its label.
Q
(Q: 1390 nM, P: 760 nM)

a. COCCN1CCCC(Nc2nc3c(F)c(F)cc(/C(=N/O)Nc4ccc(F)c(Cl)c4)c3[nH]2)C1 (centres unmarked)
b. CN1CCC[C@H](Nc2nc3c(F)c(F)cc(/C(=N/O)Nc4cccc(Cl)c4)c3[nH]2)C1
Of the two listed items, which has the higher EC50? First: a Second: b To answer, give the label that identifies your chosen option.
a

1. CN(CCc1nc2nccc(/C(=N/O)Nc3ccc(F)c(Cl)c3)c2[nH]1)CC1CCOCC1
2. O/N=C(\Nc1ccc(F)c(Cl)c1)c1cc(F)c(F)c2nc(NCc3ccccn3)[nH]c12
3. COC1CN(CCNc2nc3c(F)c(F)cc(/C(=N/O)Nc4ccc(F)c(Cl)c4)c3[nH]2)C1
List from greatest to least EC50. Answer by listing the labels in the requested order.
2, 1, 3

---

biological target: IDO1 (Homo sapiens, UniProt P14902); construct: HeLa cells were treated with a test compound in the presence of IFNγ, which induces IDO1 expression; host or cells: H1-HeLa cells, IDO1 induced with IFNγ; assay: Cell-based (HeLa) assay for measurement of IDO1 inhibition (kynurenine levels in supernatant after IFNγ induction); details: HeLa cells, IFNγ-induced IDO1, kynurenine in supernatant after 48 hour incubation; geometric mean of a minimum of four determinations
pEC50: −log10 of the molar value.
QUANTITY: pEC50

[
  {
    "MOLECULE": "O/N=C(\\Nc1ccc(F)c(-c2ccccc2)c1)c1ccnc2nc[nH]c12 [Example 77]",
    "pEC50": 5.64
  },
  {
    "MOLECULE": "CN(CCc1nc2nccc(/C(=N/O)Nc3ccc(F)c(Cl)c3)c2[nH]1)CC(F)F [Example 187]",
    "pEC50": 5.47
  }
]

1. O/N=C(\Nc1ccc2ccccc2c1)c1ccnc2nc[nH]c12 [Example 102]
2. O/N=C(\Nc1ccc(F)c(Cl)c1)c1cc(Cl)cc2[nH]cnc12 [Example 11]
Lab notebook, comparison: 1 versus 2 , higher pEC50 goes to which? Your answer should be the label of the entry you select.
1
(1: 5.71, 2: 5.12)

a. CCN(CC)CCc1nc2nccc(/C(=N/O)Nc3ccc(F)c(Cl)c3)c2[nH]1 [Example 185]
b. Nc1nc2c(F)ccc(/C(=N/O)Nc3cccc(Br)c3)c2[nH]1 [Example 18]
Decide: a or b , by lowest recorded pEC50. Please indicate the selected item by its label.
a
(a: 6.27, b: 6.51)
